Biological target: 15-PGDH (Homo sapiens (Human), UniProt P15428)
Sequence (P15428 whole entry): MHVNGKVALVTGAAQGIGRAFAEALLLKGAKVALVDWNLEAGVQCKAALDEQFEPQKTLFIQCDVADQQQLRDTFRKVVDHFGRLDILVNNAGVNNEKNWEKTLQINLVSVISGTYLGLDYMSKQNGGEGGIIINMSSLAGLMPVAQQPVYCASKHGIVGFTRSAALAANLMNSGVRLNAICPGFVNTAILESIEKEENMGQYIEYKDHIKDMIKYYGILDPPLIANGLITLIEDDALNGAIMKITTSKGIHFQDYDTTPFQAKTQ
Please note: IC50 exactly at 30 nM is Not fulfilled. Only values below 30 nM get Fulfilled.

1. COc1cc(/C=C2\SC(=O)NC2=O)ccc1OC(=O)C1CCCC1
Not fulfilled
2. O=C1NC(=O)/C(=C/c2cccc(OC(=O)C3CCCC3)c2Cl)S1
Not fulfilled
3. O=C1NC(=O)/C(=C/c2ccc(OC(=O)C3CCC3)cc2Cl)S1
Not fulfilled

Request: Is it true that IC50 reported for COc1cc(/C=C2\SC(=O)NC2=O)ccc1OC(=O)CCCc1ccccc1 is less than 30 nM?
Response: Fulfilled

Request: How about this molecule: O=C(O)c1ccccc1.O=C1NC(=O)/C(=C/c2ccc(OC(=O)c3ccccc3)c(Cl)c2)S1
Response: Not fulfilled
